# credit: patent EP4653448A1

test system: HEK293T cells; test: Expression efficiency of capped luciferase mRNAs in HEK293T cells; type: cell-based; conditions: 6 h after transfection of capped luciferase mRNA, 0.5 µg per well; reading of N-7413 = 1 (Table 3)
// Relative fluorescence reading lookup, one value per entry
Output: the number by itself.

Observe how each entry below is paired with its result.
{"Compound": "CNc1ccccc1C(=O)NC[C@H]1[C@@H](O)[C@H](n2c[n+](C)c3c(=O)[nH]c(N)nc32)O[C@@H]1COP(=O)([O-])OP(=O)(O)OP(=O)(O)OC[C@H]1O[C@@H](n2cnc3c(N)ncnc32)[C@H](OC)[C@@H]1OP(=O)(O)OC[C@H]1O[C@@H](n2cnc3c(=O)[nH]c(N)nc32)[C@H](O)[C@@H]1O", "Relative fluorescence reading": 0.34}
{"Compound": "CO[C@@H]1[C@H](OP(=O)([O-])OC[C@H]2O[C@@H](n3cnc4c(=O)[nH]c(N)nc43)[C@H](O)[C@@H]2O)[C@@H](COP(=O)(O)OP(=O)(O)OP(=O)(O)OC[C@H]2O[C@@H](n3c[n+](C)c4c(=O)[nH]c(N)nc43)[C@H](O)[C@@H]2NC(=O)CCCC[C@@H]2SC[C@@H]3NC(=O)N[C@@H]32)O[C@H]1n1cnc2c(N)ncnc21", "Relative fluorescence reading": 1.35}
{"Compound": "CNc1ccccc1C(=O)NCCCCCC(=O)NC[C@H]1[C@@H](O)[C@H](n2c[n+](C)c3c(=O)[nH]c(N)nc32)O[C@@H]1COP(=O)([O-])OP(=O)(O)OP(=O)(O)OC[C@H]1O[C@@H](n2cnc3c(N)ncnc32)[C@H](OC)[C@@H]1OP(=O)(O)OC[C@H]1O[C@@H](n2cnc3c(=O)[nH]c(N)nc32)[C@H](O)[C@@H]1O", "Relative fluorescence reading": 0.87}

Value wanted: Relative fluorescence reading (HEK293T cells) of entry CO[C@@H]1[C@H](OP(=O)([O-])OC[C@H]2O[C@@H](n3cnc4c(=O)[nH]c(N)nc43)[C@H](O)[C@@H]2O)[C@@H](COP(=O)(O)OP(=O)(O)OP(=O)(O)OC[C@H]2O[C@@H](n3c[n+](C)c4c(=O)[nH]c(N)nc43)[C@H](O)[C@@H]2OC)O[C@H]1n1cnc2c(N)ncnc21 [Compound N-7413, reference compound]
1.00

Value wanted: Relative fluorescence reading (HEK293T cells) of entry "CO[C@@H]1[C@H](OP(=O)(O)OC[C@H]2O[C@@H](n3cnc4c(=O)[nH]c(N)nc43)[C@H](O)[C@@H]2O)[C@@H](COP(=O)(O)OP(=O)(O)OP(=O)([O-])OC[C@H]2O[C@@H](n3c[n+](C)c4c(=O)[nH]c(N)nc43)[C@H](O)[C@@H]2CNC(=O)CCCCCNC(=O)CCCC[C@@H]2SC[C@@H]3NC(=O)N[C@@H]32)O[C@H]1n1cnc2c(N)ncnc21"
2.56

Value wanted: Relative fluorescence reading (HEK293T cells) of entry "COCCOCCOCC(=O)NC[C@H]1[C@@H](O)[C@H](n2c[n+](C)c3c(=O)[nH]c(N)nc32)O[C@@H]1COP(=O)([O-])OP(=O)(O)OP(=O)(O)OC[C@H]1O[C@@H](n2cnc3c(N)ncnc32)[C@H](OC)[C@@H]1OP(=O)(O)OC[C@H]1O[C@@H](n2cnc3c(=O)[nH]c(N)nc32)[C@H](O)[C@@H]1O"
1.86

Value wanted: Relative fluorescence reading (HEK293T cells) of entry "CO[C@@H]1[C@H](OP(=O)(O)OC[C@H]2O[C@@H](n3cnc4c(=O)[nH]c(N)nc43)[C@H](O)[C@@H]2O)[C@@H](COP(=O)(O)OP(=O)(O)OP(=O)([O-])OC[C@H]2O[C@@H](n3c[n+](C)c4c(=O)[nH]c(N)nc43)[C@H](O)[C@@H]2CNC(=O)CCCC[C@@H]2SC[C@@H]3NC(=O)N[C@@H]32)O[C@H]1n1cnc2c(N)ncnc21"
2.41
